targetDesc: Luciferin 4-monooxygenase (Photinus pyralis) (UniProt P08659)
Sequence (P08659 whole entry, looked up): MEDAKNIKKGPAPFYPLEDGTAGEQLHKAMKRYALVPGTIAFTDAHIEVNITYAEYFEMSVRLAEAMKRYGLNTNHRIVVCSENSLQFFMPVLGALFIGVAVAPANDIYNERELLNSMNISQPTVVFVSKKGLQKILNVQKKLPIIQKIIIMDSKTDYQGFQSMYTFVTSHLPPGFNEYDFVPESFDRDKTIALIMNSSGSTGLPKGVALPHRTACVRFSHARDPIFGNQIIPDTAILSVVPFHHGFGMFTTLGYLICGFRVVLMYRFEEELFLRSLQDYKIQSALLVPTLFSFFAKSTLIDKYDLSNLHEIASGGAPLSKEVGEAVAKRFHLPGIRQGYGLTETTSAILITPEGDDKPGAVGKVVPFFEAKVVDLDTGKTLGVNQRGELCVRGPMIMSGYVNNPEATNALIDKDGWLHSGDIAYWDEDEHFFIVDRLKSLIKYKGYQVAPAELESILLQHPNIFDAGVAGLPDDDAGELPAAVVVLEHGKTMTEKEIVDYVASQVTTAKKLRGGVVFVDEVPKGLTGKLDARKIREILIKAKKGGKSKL
testMethodNotes: qHTS profiling assay for firefly luciferase inhibitor/activator using purifed enzyme and Km concentrations of substrates (counterscreen for miR-21 project); also: nearly all actives have a fitted effect of over 55% in size; also: potency is read from the fitted curve at half-maximal effect
conditionParameters: purified FLuc, luminescence inhibition; series mostly up to 57.5 µM
The whole screen tested about 360,000 compounds, of which about 25,000 (6.9%) were called active. Inconclusive results (about 9%) are left out. Only a selection was taken, and actives are over-represented in it overall.
reportedProperty: Potency

Guide cases for Potency, answers given:
# compound, reportedProperty, recordedValue
measured = [
    ("COc1ccc(-n2c(SCC(=O)Nc3ccc(Cl)c(C)c3)nc3n[nH]c(C)c3c2=N)cc1", "Potency", "inactive"),
    ("Cc1noc(C)c1CCC(=O)N1CCCC(CO)(Cc2ccccc2)C1 (stereo not drawn)", "Potency", "19 µM (active)"),
    ("Cc1ccc2c(c1)c1ncnc(N3CCc4ccccc4C3)c1n2C", "Potency", "13.5 µM (active)"),
    ("O=C(CN1CCc2cc3c(cc2C1)OCCCO3)Nc1ccccc1", "Potency", "inactive"),
    ("O=C(NC(=O)N1CCOCC1)c1ccccc1", "Potency", "inactive"),
]

Please supply Potency for each of the following items, keeping them in order.
1. Cc1ccc(C)c(Cn2c(=O)n(CCC(=O)NCc3ccc4c(c3)OCO4)c(=O)c3sccc32)c1
2. Cc1ccc(C)c(NC(=O)NNC(=O)c2ccc3ccccc3c2O)c1

A.
inactive
inactive

###

targetDesc: Luciferin 4-monooxygenase (Photinus pyralis)
testMethodNotes: qHTS profiling assay for firefly luciferase inhibitor/activator using purifed enzyme and Km concentrations of substrates (counterscreen for miR-21 project); also: nearly all actives have a fitted effect of over 55% in size
conditionParameters: purified FLuc, luminescence inhibition; series mostly up to 57.5 µM
In all, about 360,000 compounds went through this assay and about 25,000 (6.9%) were called active. Inconclusive results (about 9%) are left out. Calls come from the whole dose curve; as a rule, active = well fitted inhibition curve with a large enough effect; inconclusive = small, poorly fitted or top-dose-only effect; inactive = flat fitted curve, though single readings scatter. Shown is part of a subset that was picked to be rich in actives.
Choose one outcome from this list and give only that: 1 = active, 0 = inactive

# compound, class
rows = [
    ("CCC(=O)Nc1nc(C)c(C(=O)Nc2cccc(Cl)c2)s1", 0),
    ("N#CCC(=O)Nc1ccc(C(=O)OCC(=O)Nc2sc3c(c2C#N)CCCC3)cc1", 0),
    ("COc1cc(OC)c(C(=O)Nc2ccc(N(C)C)cc2)cc1OC", 1),
]

Q. Assay result, entry COc1ccc(-c2csc(NC3OC(=O)c4ccccc43)n2)cc1 (stereo unspecified) — outcome?
A. 1

Q. In this assay, the call recorded for "CNC(=O)c1sc(NCc2ccccc2OC)nc1C" was what?
A. 0

Q. What was the test verdict on "COc1cccc2sc(N(CCCN(C)C)C(=O)C(c3ccccc3)c3ccccc3)nc12" ?
A. 0

Q. For "COc1cccc2sc(Nc3nc(C)c(C(C)=O)s3)nc12" , what call appears in the results of this test?
A. 1

Q. Give the logged outcome of this assay for the following compound: "COc1cc(OC)c(C(=O)Nc2ccccc2-c2ccccc2)cc1OC"
A. 0

Q. Field: outcome | Entry: "COc1ccccc1CNC(=O)COc1ccc(C)nc1[N+](=O)[O-]"
A. 0

Q. Hi team, can someone confirm the assay call for "COc1cc2ccccc2cc1C(=O)N1CCOCC1" ?
A. 0

Q. GET /call?item= "CCc1ccccc1NC(=O)c1cnn(-c2ccc(F)cc2)c1C1CCNCC1" returns the recorded outcome of this test.
A. 0

###

targetDesc: Luciferin 4-monooxygenase (Photinus pyralis)
testMethodNotes: qHTS profiling assay for firefly luciferase inhibitor/activator using purifed enzyme and Km concentrations of substrates (counterscreen for miR-21 project); also: nearly all actives have a fitted effect of over 55% in size
conditionParameters: purified FLuc, luminescence inhibition; series mostly up to 57.5 µM
In all, about 360,000 compounds went through this assay and about 25,000 (6.9%) were called active. About 9% were inconclusive and are not listed. Calls follow the shape of the dose curve; as a rule, active = well fitted inhibition curve with a large enough effect; inconclusive = small, poorly fitted or top-dose-only effect; inactive = flat fitted curve, though single readings scatter. The sample as a whole holds a higher share of actives than the screen did.
Respond with a class label; see active, inactive

Solved entries:
# molecule, targetDesc, class
rows = [
    ("O=C(CSc1cccc[n+]1[O-])c1ccc(-c2ccccc2)cc1", "Luciferin 4-monooxygenase (Photinus pyralis)", "active"),
    ("O=[N+]([O-])c1ccccc1NCc1ccccc1Cl", "Luciferin 4-monooxygenase (Photinus pyralis)", "inactive"),
]

Now, please, on to the next molecule.
Q. # outcome recorded in this test, key = Cc1cccc(NS(=O)(=O)c2ccc(C)c(C(=O)NCC(c3ccccc3)N(C)C)c2)c1 (configuration not stated)
A. inactive

###

targetDesc: Luciferin 4-monooxygenase (Photinus pyralis) (UniProt P08659)
testMethodNotes: qHTS profiling assay for firefly luciferase inhibitor/activator using purifed enzyme and Km concentrations of substrates (counterscreen for miR-21 project); also: nearly all actives have a fitted effect of over 55% in size
conditionParameters: purified FLuc, luminescence inhibition; series mostly up to 57.5 µM
Source text: MLPCN Grant: 1 R21 NS059478-01 (miR-21 grant) Assay Provider: NCGC NCGC Assay Overview: Firefly (Photinus pyralis) luciferase is one of the most commonly used transcriptional reporters for a number of reasons. […] Although light produced in a bioluminescence reaction is of lower intensity than that produced during fluorescence emission, this is offset by little to no background light inherent to luminescent assays. […]
About 25,000 (6.9%) of roughly 360,000 compounds were called active. Inconclusive results (about 9%) are left out. Calls follow the shape of the dose curve; as a rule, active = well fitted inhibition curve with a large enough effect; inconclusive = small, poorly fitted or top-dose-only effect; inactive = flat fitted curve, though single readings scatter. The full list was thinned out, with actives kept by preference.
In this exercise, the only acceptable responses are active, inactive

Q. Called result for CCOC(=O)c1ccc(NC(=O)C2CC(=O)N(c3ccc4c(c3)OCCO4)C2)cc1 (configuration not stated)
A. inactive

Q. For "COc1ccc(C(=O)Nc2onc3c2CCCC3)cc1" , what call appears in the results of this test?
A. active

Q. Hey, what did the test say about CC1CCc2c(sc3c2C2=NS(=O)(=O)CCN2C=N3)C1 (configuration not stated) ?
A. inactive

Q. Could you kindly confirm the outcome this assay logged for "O=C(CCn1c(=O)c2sccc2n(Cc2ccc(F)cc2)c1=O)NCc1ccc2c(c1)OCO2" ?
A. inactive

Q. Can you look up the reported call for "CC(=O)c1ccc(NC(=O)C2CCN(S(=O)(=O)c3c(C)noc3/C=C/c3ccc(C)cc3)CC2)cc1" for me?
A. inactive

Q. Which result was noted for this molecule in the test: "CCC(=O)Nc1ccc(C(=O)Nc2cccc(OC)c2)cc1"
A. active

Q. So what was the verdict on "CCc1nn(CC(=O)Nc2cccc(C)c2C)c(=O)c2cc3sccc3n12" in this test?
A. inactive

Q. Could you check what this test reported for COc1ccc(NC(=O)NC(C)c2c(-n3cccc3)sc(C)c2C)cc1OC (configuration not stated) ?
A. inactive

Q. Lab log entry: "COc1ccc(-c2cc(C(=O)Nc3sc4c(c3C(N)=O)CCCC4)no2)cc1" — outcome as called in the assay?
A. inactive

Q. Write down the call the test reported for this molecule. Item: COc1ccccc1CNC(=O)c1ccc(CS(=O)c2ccccc2Cl)o1 (configuration not stated)
A. inactive

Q. Record lookup: outcome of this test for "CCOC(=O)c1c(NC(=O)c2ccc(N3CCOCC3)c([N+](=O)[O-])c2)sc(C)c1C" ?
A. inactive

###

targetDesc: Luciferin 4-monooxygenase (Photinus pyralis) (UniProt P08659)
testMethodNotes: qHTS profiling assay for firefly luciferase inhibitor/activator using purifed enzyme and Km concentrations of substrates (counterscreen for miR-21 project); also: nearly all actives have a fitted effect of over 55% in size; also: potency is read from the fitted curve at half-maximal effect
conditionParameters: purified FLuc, luminescence inhibition; series mostly up to 57.5 µM
The campaign covered roughly 360,000 compounds. About 25,000 (6.9%) were called active. About 9% were inconclusive and are not listed. This is one part of a sample in which actives are shown more often than they occur.
reportedProperty: Potency

# molecule, targetDesc, Potency
rows = [
    ("C/C(=N\\NC(=O)c1cc(-c2ccc(O)cc2)nc2ccccc12)c1cccnc1", "Luciferin 4-monooxygenase (Photinus pyralis) (UniProt P08659)", "6.01 µM (active)"),
    ("O=C(c1noc2c1CCCC2)N1CCc2ccccc2C1", "Luciferin 4-monooxygenase (Photinus pyralis) (UniProt P08659)", "16.9 µM (active)"),
    ("CN1CCN(Cc2c(C(=O)N3CCc4ccccc4C3)nc3ccc(Cl)cn23)CC1", "Luciferin 4-monooxygenase (Photinus pyralis) (UniProt P08659)", "inactive"),
    ("CC(C(=O)N1CCc2ccccc21)N(C)CC(=O)Nc1ccc(F)cc1 (stereo not given)", "Luciferin 4-monooxygenase (Photinus pyralis) (UniProt P08659)", "inactive"),
    ("C/C(=N\\NC(N)=S)c1cccnc1", "Luciferin 4-monooxygenase (Photinus pyralis) (UniProt P08659)", "inactive"),
    ("COc1cc(NS(=O)(=O)c2cccs2)cc(OC)c1", "Luciferin 4-monooxygenase (Photinus pyralis) (UniProt P08659)", "inactive"),
]

Go through the items and report each one's Potency.
1. O=C(C(=O)N1CCc2ccccc2C1)N1CCc2ccccc2C1
2. COc1ccc(-n2c(=O)c3ccccc3n(Cc3ccccc3Cl)c2=O)cc1
3. COc1ccc(NC(=O)CN(C)C(=O)c2ccc(COc3ccccc3)o2)cc1

A.
1. inactive
2. inactive
3. inactive
